Attribution: patent US20230021388A1

# TARGET: T1, recombinant human ROR1 extracellular domain (human, UniProt Q01973 30-406)
# T1 construct: biotinylated for the filter lifts; also called huROR1-ECD; human ROR1-ECD
# T1 sequence (Q01973 30-406 limits assumed): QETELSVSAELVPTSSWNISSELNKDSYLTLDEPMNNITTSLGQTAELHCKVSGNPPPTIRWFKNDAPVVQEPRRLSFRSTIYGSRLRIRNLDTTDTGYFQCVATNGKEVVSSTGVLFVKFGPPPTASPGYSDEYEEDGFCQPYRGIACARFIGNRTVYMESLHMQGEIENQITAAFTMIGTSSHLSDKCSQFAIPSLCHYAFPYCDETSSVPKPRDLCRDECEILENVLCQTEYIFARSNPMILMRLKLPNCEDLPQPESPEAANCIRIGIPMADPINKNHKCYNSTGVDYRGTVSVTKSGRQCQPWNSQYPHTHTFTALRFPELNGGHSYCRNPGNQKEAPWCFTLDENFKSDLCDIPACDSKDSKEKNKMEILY
# TEST: ELISA, soluble Fab on coated huROR1-ECD
Can you tell me Kd for the items I'm about to list?

Prompt: Endpoint output: Kd of Ab1 Fab variant L1 L41V (Fab, V domains shown, Fab) VH: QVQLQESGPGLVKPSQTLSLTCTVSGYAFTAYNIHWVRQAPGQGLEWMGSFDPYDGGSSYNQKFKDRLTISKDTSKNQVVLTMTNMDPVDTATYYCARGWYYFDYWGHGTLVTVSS VL: DIVMTQTPLSLPVTPGEPASISCRASKSISKYVAWYQQKPGQAPRLLIYSGSTLQSGIPPRFSGSGYGTDFTLTINNIESEDAAYYFCQQHDESPYTFGEGTKVEIK . Value?
Response: 1.1 nM

Prompt: Entry to check: Ab1 Fab variant H2 N71H (Fab, V domains shown, Fab) VH: QVQLQESGPGLVKPSQTLSLTCTVSGYAFTAYNIHWVRQAPGQGLEWMGSFDPYDGGSSYHQKFKDRLTISKDTSKNQVVLTMTNMDPVDTATYYCARGWYYFDYWGHGTLVTVSS VL: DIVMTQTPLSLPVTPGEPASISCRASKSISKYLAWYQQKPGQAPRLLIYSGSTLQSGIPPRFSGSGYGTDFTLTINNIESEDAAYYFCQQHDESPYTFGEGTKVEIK
Response: 1.1 nM

Prompt: Input Ab1 Fab variant H1 G27N (Fab, V domains shown, Fab) VH: QVQLQESGPGLVKPSQTLSLTCTVSNYAFTAYNIHWVRQAPGQGLEWMGSFDPYDGGSSYNQKFKDRLTISKDTSKNQVVLTMTNMDPVDTATYYCARGWYYFDYWGHGTLVTVSS VL: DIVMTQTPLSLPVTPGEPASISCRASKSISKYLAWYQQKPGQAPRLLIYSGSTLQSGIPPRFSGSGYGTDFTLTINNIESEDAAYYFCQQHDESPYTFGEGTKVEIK
Response: 8.4 nM

Prompt: Likewise for Ab1 Fab variant H2 G66H (Fab, V domains shown, Fab) VH: QVQLQESGPGLVKPSQTLSLTCTVSGYAFTAYNIHWVRQAPGQGLEWMGSFDPYDHGSSYNQKFKDRLTISKDTSKNQVVLTMTNMDPVDTATYYCARGWYYFDYWGHGTLVTVSS VL: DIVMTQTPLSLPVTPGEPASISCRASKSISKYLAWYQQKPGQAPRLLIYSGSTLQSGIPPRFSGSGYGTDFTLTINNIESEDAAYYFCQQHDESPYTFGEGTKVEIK ?
Response: 1.4 nM

Prompt: Try this binder next: Ab1 Fab variant H2 N71S (Fab, V domains shown, Fab) VH: QVQLQESGPGLVKPSQTLSLTCTVSGYAFTAYNIHWVRQAPGQGLEWMGSFDPYDGGSSYSQKFKDRLTISKDTSKNQVVLTMTNMDPVDTATYYCARGWYYFDYWGHGTLVTVSS VL: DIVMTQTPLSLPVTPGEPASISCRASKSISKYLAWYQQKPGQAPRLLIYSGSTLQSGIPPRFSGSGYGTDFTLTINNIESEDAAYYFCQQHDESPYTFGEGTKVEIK
Response: 1.2 nM
